These data points were gathered from a melting point compilation (Tetko et al.).

Let's look at some compounds and their measured melting point.

{"compound": "Cc1cc2cc(C=O)oc2cc1C", "melting point": "69 to 71 °C"}
{"compound": "CCOC(=O)Cn1[nH]cc(C#N)c1=N", "melting point": "121 to 123 °C"}
{"compound": "Cc1ccc(NC(=O)NC(=O)CCl)cc1C", "melting point": "144 to 146 °C"}
{"compound": "Nc1ccccc1C(=O)NC1CCCC1", "melting point": "174 to 176 °C"}
{"compound": "O=Cc1coc2ccc([N+](=O)[O-])cc2c1=O", "melting point": "157 to 161 °C"}

# return recorded melting point for entry NC(=O)C(Cl)c1ccc(Br)cc1 (centres undefined)
164 to 166 °C

# return recorded melting point for entry CN(C)S(=O)(=O)c1ccccc1C(N)=S
154 to 156 °C

# return recorded melting point for entry CCCCc1nnc(N)o1
139 to 141 °C

# return recorded melting point for entry CC(Cl)C(=O)NC1CC1 (centres undefined)
67 to 71 °C

# return recorded melting point for entry CCOC1CCN(C(=O)Nc2cccc(C(C)=O)c2)CC1
95 to 97 °C

# return recorded melting point for entry CC(Cc1ccccc1)n1cccc1C(=O)O (centres undefined)
78 to 80 °C

# return recorded melting point for entry Cc1[nH]c(SCC(=O)O)nc1Cc1ccccc1
183 to 185 °C
